system: Mycolicibacterium smegmatis; assay: Minimum inhibitory concentration against Mycobacterium smegmatis; format: functional
PROPERTY LABEL: MIC (µg/mL)
Report the figure in µg/mL without appending any unit label.

Example entries begin here.
| COMPOUND | UNIT OF MEASUREMENT | TEST VALUE |
| --- | --- | --- |
| CC1CN(c2cc3c(cc2F)c(=O)c(C(=O)O)cn3-c2ccc(Cl)cc2Cl)CC(C)N1 (stereo not given) | µg/mL | 4 |
| O=C(O)c1cn(-c2ccc(F)cc2)c2cc(N3CCNCC3)c(F)cc2c1=O [SARAFLOXACIN] | µg/mL | 1 |
| Cc1ccc(-n2cc(C(=O)O)c(=O)c3cc(F)c(N4CC(C)NC(C)C4)cc32)cc1 (stereo not given) | µg/mL | 4 |
| Cc1cc(F)ccc1-n1cc(C(=O)O)c(=O)c2cc(F)c(N3CCNCC3)cc21 | µg/mL | 4 |
| O=C(O)c1cn(-c2ccccc2F)c2cc(N3CCNCC3)c(F)cc2c1=O | µg/mL | 2 |

Mycolicibacterium smegmatis assay, compound Cc1cc(F)ccc1-n1cc(C(=O)O)c(=O)c2cc(F)c(N3CC(C)NC(C)C3)cc21 (stereo not given) , recorded MIC = 2

Mycolicibacterium smegmatis assay, compound `Cc1ccc(-n2cc(C(=O)O)c(=O)c3cc(F)c(N4CCNCC4)cc32)c(F)c1` , recorded MIC = 2

Mycolicibacterium smegmatis assay, compound CC1CN(c2cc3c(cc2F)c(=O)c(C(=O)O)cn3-c2ccc(F)cc2)CC(C)N1 (stereo not given) , recorded MIC = 1

Mycolicibacterium smegmatis assay, compound `O=C(O)c1cn(-c2ccc(F)cc2F)c2cc(N3CCNCC3)c(F)cc2c1=O` , recorded MIC = 0.5

Mycolicibacterium smegmatis assay, compound CC1CN(c2cc3c(cc2F)c(=O)c(C(=O)O)cn3-c2ccccc2)CC(C)N1 (stereo not given) , recorded MIC = 4

Mycolicibacterium smegmatis assay, compound CC1CN(c2cc3c(cc2F)c(=O)c(C(=O)O)cn3-c2ccc(F)cc2F)CC(C)N1 (stereo not given) , recorded MIC = 0.5

Mycolicibacterium smegmatis assay, compound C[C@@H]1CN(c2c(F)c(N)c3c(=O)c(C(=O)O)cn(C4CC4)c3c2F)C[C@H](C)N1 [SPARFLOXACIN] , recorded MIC = 0.13

Mycolicibacterium smegmatis assay, compound `O=C(O)c1cn(-c2ccccc2)c2cc(N3CCNCC3)c(F)cc2c1=O` , recorded MIC = 2

Mycolicibacterium smegmatis assay, compound Cc1ccc(-n2cc(C(=O)O)c(=O)c3cc(F)c(N4CC(C)NC(C)C4)cc32)c(C)c1 (stereo not given) , recorded MIC = 16

Mycolicibacterium smegmatis assay, compound `Cc1ccc(-n2cc(C(=O)O)c(=O)c3cc(F)c(N4CCNCC4)cc32)c(C)c1` , recorded MIC = 32

* * *

Below, each entry is listed alongside its reported MIC.
tested on: Pseudomonas aeruginosa; assay: Minimum inhibitory concentration against gram-negative Pseudomonas aeruginosa U1-18 (PA-7); type: functional
Report the figure in µg/mL without appending any unit label.

| MOLECULE | MIC, µg/mL |
| --- | --- |
| C[C@@H]1CN(c2c(F)c(N)c3c(=O)c(C(=O)O)cn(C4CC4)c3c2F)C[C@H](C)N1 [SPARFLOXACIN] | 0.8 |

Record `Cc1ccc(-n2cc(C(=O)O)c(=O)c3cc(F)c(N4CCNCC4)cc32)c(F)c1` . Reported MIC: 1.6

Record CC1CN(c2cc3c(cc2F)c(=O)c(C(=O)O)cn3-c2ccccc2)CC(C)N1 (centres undefined) . Reported MIC: 1.6

Record Cc1ccc(-n2cc(C(=O)O)c(=O)c3cc(F)c(N4CC(C)NC(C)C4)cc32)c(F)c1 (centres undefined) . Reported MIC: 3.1

Record O=C(O)c1cn(C2CC2)c2cc(N3CCNCC3)c(F)cc2c1=O [CIPROFLOXACIN] . Reported MIC: 0.2

Record Cc1ccc(-n2cc(C(=O)O)c(=O)c3cc(F)c(N4CC(C)NC(C)C4)cc32)cc1 (centres undefined) . Reported MIC: 3.1

Record `O=C(O)c1cn(-c2ccc(Cl)cc2Cl)c2cc(N3CCNCC3)c(F)cc2c1=O` . Reported MIC: 3.1

* * *

test system: Mycolicibacterium smegmatis; assay: Minimum inhibitory concentration against Mycobacterium smegmatis; assay type: functional
PROPERTY LABEL: MIC (µg/mL)
Report the figure in µg/mL without appending any unit label.

Example entries begin here.
| MOLECULE | EXPERIMENTAL SYSTEM | PROPERTY LABEL | TEST VALUE |
| --- | --- | --- | --- |
| Cc1c(F)ccc(-n2cc(C(=O)O)c(=O)c3cc(F)c(N4CC(C)NC(C)C4)cc32)c1F (centres undefined) | Mycolicibacterium smegmatis | MIC | 4 |
| Cc1ccc(-n2cc(C(=O)O)c(=O)c3cc(F)c(N4CCNCC4)cc32)cc1 | Mycolicibacterium smegmatis | MIC | 4 |
| CC1CN(c2cc3c(cc2F)c(=O)c(C(=O)O)cn3-c2ccccc2F)CC(C)N1 (centres undefined) | Mycolicibacterium smegmatis | MIC | 2 |
| Cc1ccccc1-n1cc(C(=O)O)c(=O)c2cc(F)c(N3CC(C)NC(C)C3)cc21 (centres undefined) | Mycolicibacterium smegmatis | MIC | 8 |

Record `Cc1c(F)ccc(-n2cc(C(=O)O)c(=O)c3cc(F)c(N4CCNCC4)cc32)c1F` . Reported MIC: 8

Record `O=C(O)c1cn(C2CC2)c2cc(N3CCNCC3)c(F)cc2c1=O` . Reported MIC: 0.25

Record Cc1ccc(-n2cc(C(=O)O)c(=O)c3cc(F)c(N4CC(C)NC(C)C4)cc32)c(F)c1 (centres undefined) . Reported MIC: 2

Record `O=C(O)c1cn(-c2ccc(Cl)cc2Cl)c2cc(N3CCNCC3)c(F)cc2c1=O` . Reported MIC: 4

Record `Cc1ccccc1-n1cc(C(=O)O)c(=O)c2cc(F)c(N3CCNCC3)cc21` . Reported MIC: 8

* * *

Below, each entry is listed alongside its reported MIC.
tested on: Mycolicibacterium fortuitum; experiment: Minimum inhibitory concentration against Mycobacterium fortuitum; format: functional
Report the figure in µg/mL without appending any unit label.

Example entries begin here.
| COMPOUND | UNIT OF MEASUREMENT | MIC |
| --- | --- | --- |
| Cc1ccccc1-n1cc(C(=O)O)c(=O)c2cc(F)c(N3CC(C)NC(C)C3)cc21 (centres undefined) | µg/mL | 1 |
| Cc1ccc(-n2cc(C(=O)O)c(=O)c3cc(F)c(N4CCNCC4)cc32)cc1 | µg/mL | 2 |
| Cc1ccc(-n2cc(C(=O)O)c(=O)c3cc(F)c(N4CC(C)NC(C)C4)cc32)cc1 (centres undefined) | µg/mL | 1 |
| Cc1cc(F)ccc1-n1cc(C(=O)O)c(=O)c2cc(F)c(N3CC(C)NC(C)C3)cc21 (centres undefined) | µg/mL | 2 |
| O=C(O)c1cn(C2CC2)c2cc(N3CCNCC3)c(F)cc2c1=O | µg/mL | 0.06 |

Record CC1CN(c2cc3c(cc2F)c(=O)c(C(=O)O)cn3-c2ccccc2F)CC(C)N1 (centres undefined) . Reported MIC: 0.5

Record CC1CN(c2cc3c(cc2F)c(=O)c(C(=O)O)cn3-c2ccc(F)cc2F)CC(C)N1 (centres undefined) . Reported MIC: 0.25

Record `Cc1ccc(-n2cc(C(=O)O)c(=O)c3cc(F)c(N4CCNCC4)cc32)c(F)c1` . Reported MIC: 1

Record `Cc1cc(F)ccc1-n1cc(C(=O)O)c(=O)c2cc(F)c(N3CCNCC3)cc21` . Reported MIC: 1

Record `Cc1ccccc1-n1cc(C(=O)O)c(=O)c2cc(F)c(N3CCNCC3)cc21` . Reported MIC: 4

Record `O=C(O)c1cn(-c2ccccc2)c2cc(N3CCNCC3)c(F)cc2c1=O` . Reported MIC: 0.5

Record Cc1ccc(-n2cc(C(=O)O)c(=O)c3cc(F)c(N4CC(C)NC(C)C4)cc32)c(F)c1 (centres undefined) . Reported MIC: 1

Record `O=C(O)c1cn(-c2ccc(F)cc2)c2cc(N3CCNCC3)c(F)cc2c1=O` . Reported MIC: 0.25

Record `Cc1c(F)ccc(-n2cc(C(=O)O)c(=O)c3cc(F)c(N4CCNCC4)cc32)c1F` . Reported MIC: 0.5

Record `O=C(O)c1cn(-c2ccccc2F)c2cc(N3CCNCC3)c(F)cc2c1=O` . Reported MIC: 0.25

* * *

Below, each entry is listed alongside its reported pKa.
experiment: Dissociation constant (pKa2)
Reply briefly: the number, and no unit.

Record `Cc1ccccc1-n1cc(C(=O)O)c(=O)c2cc(F)c(N3CCNCC3)cc21` . Reported pKa: 8.59

Record CC1CN(c2cc3c(cc2F)c(=O)c(C(=O)O)cn3-c2ccccc2F)CC(C)N1 (stereo not given) . Reported pKa: 8.51

Record `O=C(O)c1cn(-c2ccc(F)cc2)c2cc(N3CCNCC3)c(F)cc2c1=O` . Reported pKa: 8.59

Record Cc1ccccc1-n1cc(C(=O)O)c(=O)c2cc(F)c(N3CC(C)NC(C)C3)cc21 (stereo not given) . Reported pKa: 8.55

Record `Cc1ccc(-n2cc(C(=O)O)c(=O)c3cc(F)c(N4CCNCC4)cc32)c(F)c1` . Reported pKa: 8.34
